Test system: Vero E6
assay: cell viability relative to DMSO; higher = less toxic
conditions used: 72 h; 10 nM
value kind: cell viability (%)
State the answer as a number, implicitly in %.

Here's what some known entries look like.
* CCCc1ncc(C[n+]2ccccc2C)c(N)n1 | 108
* C[C@H](c1ccc2ccc(OC3CCC(C(F)(F)F)CC3)c(C(F)(F)F)c2c1)N1C2CCC1CC(C(=O)O)C2 (stereo partly drawn) | 103

Request: // returns reported cell viability for input CCCCCCCCCCCCOS(=O)(=O)O [dodecyl-sulfate]
Result: 102

----------
Test system: Caco-2
assay: cell viability relative to DMSO; higher = less toxic
conditions used: 72 h; 10000 nM
# note: exactly 90% is not below, so it is No; use Yes for cell viability strictly under it

Record excerpt, results attached:
- CCN1CCN(C(=O)N[C@@H](C(=O)N[C@@H]2C(=O)N3C(C(=O)O)=C(CSc4nnnn4C)CS[C@H]23)c2ccc(O)cc2)C(=O)C1=O: No
- CSC[C@H](N)C(=O)O: No
- COc1cc(C[C@H]2c3cc(OC)c(OC)cc3CCN2C)c(Oc2cc3c(cc2OC)-c2c(OC)c(OC)cc4c2[C@H](C3)N(C)CC4)cc1OC: Yes
- O=c1c(O)c(-c2ccc(O)c(O)c2)oc2cc(O)cc(O)c12: Yes
- CC(=O)c1ccc2c(c1)[C@@H]1C=CC[C@@H]1[C@H](c1cc3c(cc1Br)OCO3)N2: Yes

Now examine the next entry.
Request: hey, is cell viability for Oc1noc2c1CCNC2 lower than 90% or not?
Result: No

----------
Parameter cell viability: see the listing below.
Tested on: Calu-3
assay: cell viability relative to DMSO; higher = less toxic
conditions used: 72 h; 10000 nM
State the answer as a number, implicitly in %.

* CCCCCCCCCCCCCCSCC(=O)O | 109
* COC(c1ccccc1)(c1ccccc1)[C@H](Oc1nc(C)cc(C)n1)C(=O)O | 97
* C[C@@H](O[C@H]1OCCN(Cc2nn(P(=O)(O)O)c(=O)[nH]2)[C@H]1c1ccc(F)cc1)c1cc(C(F)(F)F)cc(C(F)(F)F)c1 [fosaprepitant-dimeglumine] | 108
* CC(C)n1nnc2cc(C(=O)O)ccc21 | 103
* CC(=O)N[C@@H](CCC(N)=O)C(=O)O [aceglutamide] | 103

Request: // returns reported cell viability for input CCCCCCCCCCCCOS(=O)(=O)O [dodecyl-sulfate]
Result: 106

Request: // returns reported cell viability for input O=C1NC(=O)c2c1c1c3ccccc3n3c1c1c2c2ccccc2n1C1CCC3O1
Result: 95.9

----------
Parameter cell viability: see the listing below.
Test system: Calu-3
assay: cell viability relative to DMSO; higher = less toxic
conditions used: 72 h; 100 nM
State the answer as a number, implicitly in %.

Here's what some known entries look like.
- CC1(C)Oc2ccc(C#N)cc2[C@@H](OC2=CC(=O)CC2)[C@@H]1O: 110
- Clc1cccc(Cl)c1CSc1nnc(-c2cnccn2)s1: 97
- O.O=[Si]=O.O=[Si]=O.O=[Si]=O.O=[Si]=O.[O]=[Mg].[O]=[Mg].[O]=[Mg]: 89.8
- CC(C)C(=O)OC[C@@]1(N=[N+]=[N-])O[C@@H](n2ccc(N)nc2=O)[C@H](OC(=O)C(C)C)[C@@H]1OC(=O)C(C)C: 97
- CN[C@@H]1[C@H](O)[C@H](NC)[C@H]2O[C@@]3(O)C(=O)C[C@@H](C)O[C@H]3O[C@@H]2[C@H]1O: 105

Now examine the next entry.
Request: // returns reported cell viability for input Cc1cc(CC(=O)O)n(C)c1C(=O)c1ccc(Cl)cc1 [zomepirac]
Result: 97.4
